- testTarget: SV2A (Macaca mulatta, UniProt H9EQH8)
- Sequence (H9EQH8 1-742): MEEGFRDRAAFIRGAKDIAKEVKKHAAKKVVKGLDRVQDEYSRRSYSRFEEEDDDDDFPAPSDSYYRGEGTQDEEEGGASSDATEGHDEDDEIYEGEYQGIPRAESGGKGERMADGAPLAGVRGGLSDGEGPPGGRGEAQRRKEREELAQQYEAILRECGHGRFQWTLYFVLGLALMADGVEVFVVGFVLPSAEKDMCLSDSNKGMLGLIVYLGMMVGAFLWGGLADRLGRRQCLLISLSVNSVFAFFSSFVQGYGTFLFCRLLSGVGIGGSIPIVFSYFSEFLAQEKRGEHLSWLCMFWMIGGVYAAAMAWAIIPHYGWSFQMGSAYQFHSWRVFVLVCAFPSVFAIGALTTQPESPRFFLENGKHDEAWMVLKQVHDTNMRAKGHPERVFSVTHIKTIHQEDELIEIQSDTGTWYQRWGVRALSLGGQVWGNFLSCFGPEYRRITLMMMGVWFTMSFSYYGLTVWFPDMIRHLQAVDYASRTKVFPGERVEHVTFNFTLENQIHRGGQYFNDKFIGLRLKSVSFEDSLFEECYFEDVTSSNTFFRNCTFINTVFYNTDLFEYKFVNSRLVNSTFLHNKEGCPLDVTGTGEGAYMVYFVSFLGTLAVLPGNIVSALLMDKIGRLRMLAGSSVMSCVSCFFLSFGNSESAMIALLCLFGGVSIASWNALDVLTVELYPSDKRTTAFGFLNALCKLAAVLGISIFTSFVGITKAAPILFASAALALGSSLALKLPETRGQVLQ
- experimentSummary: PET imaging studies in rhesus monkeys
- measurementParameters: rhesus monkey, in vivo, iv
measuredParameter: time to SUV peak in gray matter regions

{"columns": ["compound", "measuredParameter", "measValue"],
 "data": [
  ["O=C1CC(c2cccc(F)c2)CN1Cc1ccncc1 (stereo not shown) [^18F-12]", "time to SUV peak in gray matter regions", "≤ 10 min"],
  ["Cc1cnccc1CN1CC(c2cc(F)c(F)c(F)c2)CC1=O (stereo not shown) [^18F-3]", "time to SUV peak in gray matter regions", "slower"],
  ["Cc1cnccc1CN1CC(c2cc(F)c(F)c(F)c2)CC1=O (single isomer, unassigned) [^11C-3]", "time to SUV peak in gray matter regions", "slower"],
  ["Cc1cnccc1CN1CC(c2ccc(F)c(F)c2)CC1=O (stereo not shown) [^18F-4]", "time to SUV peak in gray matter regions", "≤ 10 min"]
]}
